Data origin: patent US10294207B2

Would you kindly list IC50 for each of these compounds?
system-under-test: TBK1 (Homo sapiens)
Construct: purchased Promega V3991
Sequence (Q9UHD2 whole entry): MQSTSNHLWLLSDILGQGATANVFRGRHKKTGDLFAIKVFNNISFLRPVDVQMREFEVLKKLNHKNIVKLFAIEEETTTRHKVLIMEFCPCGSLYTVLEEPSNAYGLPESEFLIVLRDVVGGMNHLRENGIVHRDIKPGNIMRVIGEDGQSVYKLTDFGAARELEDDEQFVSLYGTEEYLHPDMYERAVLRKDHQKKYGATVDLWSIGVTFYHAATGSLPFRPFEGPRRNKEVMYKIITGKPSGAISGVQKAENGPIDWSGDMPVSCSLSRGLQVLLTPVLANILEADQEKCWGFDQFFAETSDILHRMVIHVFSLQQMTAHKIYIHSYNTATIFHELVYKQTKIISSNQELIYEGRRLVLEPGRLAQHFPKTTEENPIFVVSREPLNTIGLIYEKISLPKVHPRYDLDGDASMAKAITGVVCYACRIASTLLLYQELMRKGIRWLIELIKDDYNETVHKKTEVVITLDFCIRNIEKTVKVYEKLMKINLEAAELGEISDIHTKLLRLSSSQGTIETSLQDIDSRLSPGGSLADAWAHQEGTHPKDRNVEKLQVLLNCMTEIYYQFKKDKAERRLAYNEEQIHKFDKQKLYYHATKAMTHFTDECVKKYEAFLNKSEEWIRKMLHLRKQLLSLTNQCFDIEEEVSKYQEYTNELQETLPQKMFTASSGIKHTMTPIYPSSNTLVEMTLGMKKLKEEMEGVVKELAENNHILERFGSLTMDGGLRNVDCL
protocol: TBK1 inhibition, ADP-Glo Kinase Assay
Format: biochemical
run-parameters: luminometer

Entry O=C(Nc1n[nH]c2ccc(C(=O)NC(c3cccs3)C3CC3)cc12)c1ccc(N2CCNCC2)cc1 (stereo not drawn) [Example 126] ; IC50 = 0.019 µM

Entry Cn1cc(C(=O)Nc2n[nH]c3ccc(C(=O)NCc4cccs4)cc23)cn1 [Example 7] ; IC50 = 0.16 µM

Entry CCC[C@H](NC(=O)c1ccc2[nH]nc(NC(=O)c3ccc(N4CCN(C)CC4)cc3)c2c1)c1ccccc1 [Example 193] ; IC50 = 0.8 µM

Entry O=C(NCc1cccs1)c1ccc2[nH]nc(NC(=O)c3ccc(NCC4CCCO4)cc3)c2c1 (stereo not drawn) [Example 157] ; IC50 = 0.008 µM

Entry CC(NC(=O)c1ccc2[nH]nc(NC(=O)c3ccc(N4CCNCC4)cc3)c2c1)c1ccccc1 (stereo not drawn) [Example 181, 2,2,2-trifluoroacetate] ; IC50 = 0.0039 µM

Entry CCC(NC(=O)c1ccc2[nH]nc(NC(=O)c3ccc(N4CC(C)NC(C)C4)cc3)c2c1)c1cccs1 (stereo not drawn) [Example 95, 2,2,2-trifluoroacetate] ; IC50 = 0.0028 µM

Entry CC(NC(=O)c1ccc2[nH]nc(NC(=O)c3ccc(N4C[C@@H](C)N[C@@H](C)C4)cc3)c2c1)c1ccccc1 (stereo partly drawn) [Example 186] ; IC50 = 0.0027 µM

Entry COC(=O)c1cc2[nH]nc(-c3ccc(OC)cc3)c2s1 [Example 231] ; IC50 = > 10 µM

Entry COc1ccc(C(=O)Nc2n[nH]c3ccc(C(=O)N4CCc5ccsc5C4)cc23)cc1 [Example 5] ; IC50 = 8.4 µM

Entry C[C@@H](NC(=O)c1ccc2[nH]nc(NC(=O)c3ccc(N4CCN(C)CC4)cc3)c2c1)c1ccccc1 [Example 175] ; IC50 = 0.0024 µM

Entry CCC(NCc1ccc2[nH]nc(NC(=O)c3ccc(F)cc3)c2c1)c1cccs1 (stereo not drawn) [Example 32] ; IC50 = > 10 µM

Entry O=C(NCC1CCCCC1)c1ccc2[nH]nc(NC(=O)c3ccc(N4CCOCC4)cc3)c2c1 [Example 88] ; IC50 = 0.02 µM

Entry CN1CCN(c2ccc(C(=O)Nc3n[nH]c4ccc(NC(=O)Cc5cccs5)cc34)cc2)CC1 [Example 141] ; IC50 = 0.024 µM

Entry CCC(NC(=O)c1ccc2[nH]nc(NC(=O)c3ccc(N4CCOCC4)cc3)c2c1)c1ccccc1 (stereo not drawn) [Example 188] ; IC50 = 0.0032 µM

Entry CCC(NCc1ccc2[nH]nc(NC(=O)c3ccc(N4CCN(C)CC4)cc3)c2c1)c1cccs1 (stereo not drawn) [Example 124] ; IC50 = 2.44 µM

Entry Cc1ccc(CNC(=O)c2ccc3[nH]nc(NC(=O)c4ccc(F)cc4)c3c2)s1 [Example 19] ; IC50 = 0.49 µM

Entry CN1CCN(c2ccc(C(=O)Nc3n[nH]c4ccc(C(=O)NC5(c6cccs6)CCCCC5)cc34)cc2)CC1 [Example 147] ; IC50 = 0.11 µM

Entry CC(NC(=O)c1ccc2[nH]nc(NC(=O)c3ccc(N4CCOCC4)cc3)c2c1)c1cccs1 (stereo not drawn) [Example 43] ; IC50 = 0.0021 µM

Entry C[C@H]1CN(c2ccc(C(=O)Nc3n[nH]c4ccc(C(=O)NCc5cccs5)cc34)cc2)CCN1 [Example 117, 2,2,2-trifluoroacetate] ; IC50 = 0.0033 µM

Entry CN1CCN(c2ccc(C(=O)Nc3n[nH]c4ccc(C(=O)NCc5cccs5)cc34)cc2)CC1 [Example 149] ; IC50 = 0.0075 µM

Entry CC(NC(=O)c1ccc2[nH]nc(NC(=O)c3ccc(N4CCN(C)CC4)cc3)c2c1)c1ccco1 (stereo not drawn) [Example 81] ; IC50 = 0.0039 µM

Entry CN1CCN(c2ccc(C(=O)Nc3n[nH]c4ccc(C(=O)NCc5ccno5)cc34)cc2)CC1 [Example 178] ; IC50 = 0.037 µM

Entry CC(C)CCNC(=O)c1ccc2[nH]nc(NC(=O)c3ccc(N4CCN(C)CC4)cc3)c2c1 [Example 114, 2,2,2-trifluoroacetate] ; IC50 = 0.082 µM

Entry Nc1ccc(C(=O)Nc2n[nH]c3ccc(C(=O)NCc4cccs4)cc23)cc1 [Example 205] ; IC50 = 0.003 µM

Entry CN1CCN(c2ccc(C(=O)Nc3n[nH]c4ccc(C(=O)NCc5ccc(Cl)s5)cc34)cc2)CC1 [Example 146] ; IC50 = 0.019 µM

Entry Cc1cnc(-c2cc3[nH]nc(NC(=O)c4ccc(N5CCN(C)CC5)cc4)c3s2)o1 [Example 225] ; IC50 = 0.13 µM

Entry Cc1ccc(CNC(=O)c2ccc3[nH]nc(NC(=O)c4ccc(N5CCOCC5)cc4)c3c2)s1 [Example 60] ; IC50 = 0.034 µM

Entry COCCNc1ccc(C(=O)Nc2n[nH]c3ccc(C(=O)NCc4cccs4)cc23)cc1 [Example 150] ; IC50 = 0.0072 µM

Entry O=C(NCc1ccccn1)c1ccc2[nH]nc(NC(=O)c3ccc(F)cc3)c2c1 [Example 28] ; IC50 = 0.73 µM

Entry CN1CCN(c2ccc(C(=O)Nc3n[nH]c4ccc(C(=O)NCC5CCCCC5)cc34)cc2)CC1 [Example 87] ; IC50 = 0.018 µM
